Test system: 323965-272-R-J2-PDC complex spheroid growth, % test/control
method notes: Anticancer human tumor 323965-272-R-J2-PDC patient-derived pancreatic carcinoma cell line growth inhibition [Asc]
condition parameters: second compound 0.316 µM; first compound 0.316 µM; active compounds read low
Label Fulfilled when viability, T/C < 50%; otherwise Not fulfilled.

A selection of reference data follows.
C=CC(=O)N1CCN(c2nc(=O)n(-c3c(C)ccnc3C(C)C)c3nc(-c4c(O)cccc4F)c(F)cc23)C(C)C1 (configuration not stated) + Cc1c(S(C)(=O)=O)c(-c2cc(F)cc(N3CCN(c4ccc(NS(=O)(=O)c5ccc(NC(CCN6CCC(C(=O)OCCCP(=O)(O)O)CC6)CSc6ccccc6)c(S(=O)(=O)C(F)(F)F)c5)cc4)CC3)c2)c(-c2ccc(Cl)cc2)n1C(C)C = Not fulfilled
CCN1CCN(Cc2ccc(Nc3ncc(F)c(-c4cc(F)c5nc(C)n(C(C)C)c5c4)n3)nc2)CC1 + Cc1c(S(C)(=O)=O)c(-c2cc(F)cc(N3CCN(c4ccc(NS(=O)(=O)c5ccc(NC(CCN6CCC(C(=O)OCCCP(=O)(O)O)CC6)CSc6ccccc6)c(S(=O)(=O)C(F)(F)F)c5)cc4)CC3)c2)c(-c2ccc(Cl)cc2)n1C(C)C = Not fulfilled
C#Cc1c(F)ccc2cc(O)cc(-c3ncc4c(N5CC6CCC(C5)N6)nc(OCC56CCCN5CC(F)C6)nc4c3F)c12 (configuration not stated) + CNC(C)C(=O)NC1CN(S(=O)(=O)c2cccc(S(=O)(=O)N3CCC4CCC(C(=O)NC(c5ccccc5)c5ccccc5)N4C(=O)C(NC(=O)C(C)NC)C3)c2)CCC2CCC(C(=O)NC(c3ccccc3)c3ccccc3)N2C1=O = Not fulfilled
O=C(c1cc(Cc2n[nH]c(=O)c3ccccc23)ccc1F)N1CCN(C(=O)C2CC2)CC1 + Cc1c(S(C)(=O)=O)c(-c2cc(F)cc(N3CCN(c4ccc(NS(=O)(=O)c5ccc(NC(CCN6CCC(C(=O)OCCCP(=O)(O)O)CC6)CSc6ccccc6)c(S(=O)(=O)C(F)(F)F)c5)cc4)CC3)c2)c(-c2ccc(Cl)cc2)n1C(C)C = Not fulfilled
C=C(F)C(=O)N1CCN(c2nc(OCC3CCCN3C)nc3c2CCN(c2cccc4cccc(Cl)c24)C3)CC1CC#N (configuration not stated) + Cc1c(S(C)(=O)=O)c(-c2cc(F)cc(N3CCN(c4ccc(NS(=O)(=O)c5ccc(NC(CCN6CCC(C(=O)OCCCP(=O)(O)O)CC6)CSc6ccccc6)c(S(=O)(=O)C(F)(F)F)c5)cc4)CC3)c2)c(-c2ccc(Cl)cc2)n1C(C)C = Not fulfilled
CNC(C)C(=O)NC1CN(S(=O)(=O)c2cccc(S(=O)(=O)N3CCC4CCC(C(=O)NC(c5ccccc5)c5ccccc5)N4C(=O)C(NC(=O)C(C)NC)C3)c2)CCC2CCC(C(=O)NC(c3ccccc3)c3ccccc3)N2C1=O (configuration not stated) + Cc1c(S(C)(=O)=O)c(-c2cc(F)cc(N3CCN(c4ccc(NS(=O)(=O)c5ccc(NC(CCN6CCC(C(=O)OCCCP(=O)(O)O)CC6)CSc6ccccc6)c(S(=O)(=O)C(F)(F)F)c5)cc4)CC3)c2)c(-c2ccc(Cl)cc2)n1C(C)C = Not fulfilled

# input Does C=CC(=O)N1CCN(c2nc(=O)n(-c3c(C)ccnc3C(C)C)c3nc(-c4c(O)cccc4F)c(F)cc23)C(C)C1 (configuration not stated) + CNC(C)C(=O)NC1CN(S(=O)(=O)c2cccc(S(=O)(=O)N3CCC4CCC(C(=O)NC(c5ccccc5)c5ccccc5)N4C(=O)C(NC(=O)C(C)NC)C3)c2)CCC2CCC(C(=O)NC(c3ccccc3)c3ccccc3)N2C1=O have viability, T/C strictly under 50%?
# output Not fulfilled

# input Does O=C(c1ccc(F)c(F)c1Nc1ccc(I)cc1F)N1CC(O)([C@@H]2CCCCN2)C1 + CNC(C)C(=O)NC1CN(S(=O)(=O)c2cccc(S(=O)(=O)N3CCC4CCC(C(=O)NC(c5ccccc5)c5ccccc5)N4C(=O)C(NC(=O)C(C)NC)C3)c2)CCC2CCC(C(=O)NC(c3ccccc3)c3ccccc3)N2C1=O have viability, T/C strictly under 50%?
# output Fulfilled

# input Does O=C(c1ccc(F)c(F)c1Nc1ccc(I)cc1F)N1CC(O)([C@@H]2CCCCN2)C1 + Cc1c(S(C)(=O)=O)c(-c2cc(F)cc(N3CCN(c4ccc(NS(=O)(=O)c5ccc(NC(CCN6CCC(C(=O)OCCCP(=O)(O)O)CC6)CSc6ccccc6)c(S(=O)(=O)C(F)(F)F)c5)cc4)CC3)c2)c(-c2ccc(Cl)cc2)n1C(C)C have viability, T/C strictly under 50%?
# output Fulfilled

# input Does COc1c(OCCCN2CCOCC2)ccc2c3n(c(=NC(=O)c4cnc(N)nc4)nc12)CCN3 + CNC(C)C(=O)NC1CN(S(=O)(=O)c2cccc(S(=O)(=O)N3CCC4CCC(C(=O)NC(c5ccccc5)c5ccccc5)N4C(=O)C(NC(=O)C(C)NC)C3)c2)CCC2CCC(C(=O)NC(c3ccccc3)c3ccccc3)N2C1=O have viability, T/C strictly under 50%?
# output Fulfilled

# input Does O=C(c1cc(Cc2n[nH]c(=O)c3ccccc23)ccc1F)N1CCN(C(=O)C2CC2)CC1 + CNC(C)C(=O)NC1CN(S(=O)(=O)c2cccc(S(=O)(=O)N3CCC4CCC(C(=O)NC(c5ccccc5)c5ccccc5)N4C(=O)C(NC(=O)C(C)NC)C3)c2)CCC2CCC(C(=O)NC(c3ccccc3)c3ccccc3)N2C1=O have viability, T/C strictly under 50%?
# output Not fulfilled

# input Does COc1c(OCCCN2CCOCC2)ccc2c3n(c(=NC(=O)c4cnc(N)nc4)nc12)CCN3 + Cc1c(S(C)(=O)=O)c(-c2cc(F)cc(N3CCN(c4ccc(NS(=O)(=O)c5ccc(NC(CCN6CCC(C(=O)OCCCP(=O)(O)O)CC6)CSc6ccccc6)c(S(=O)(=O)C(F)(F)F)c5)cc4)CC3)c2)c(-c2ccc(Cl)cc2)n1C(C)C have viability, T/C strictly under 50%?
# output Fulfilled

* * *

Test system: 323965-272-R-J2-PDC complex spheroid growth, % test/control
method notes: Anticancer human tumor 323965-272-R-J2-PDC cell line growth inhibition [Asc];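 also: compound exposure lasted 7 days starting three days after spheroid seeding; 100% = DMSO vehicle control wells with viability set relative to vehicle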
condition parameters: second compound 0.0316 µM; first compound 0.0949 µM; active compounds read low
Excerpt: Multicellular complex tumor spheroid response to apoptosis pathway targeting inhibitors Alrizomadlin, Pelcitoclax, and Dasminapant in combination with a variety of drugs and investigational agents in selected tumor cell lines […] Compounds. […] If the clinical Cmax for an agent had not been determined, the highest concentration tested was 10 microM. […]
measured attribute: viability, T/C (%)
Give the quantity in %, number only.

CCN1C(C(=O)NC23CCC(C(=O)O)(CC2)CC3)C(c2cccc(Cl)c2F)C2(C(=O)Nc3cc(Cl)ccc32)C12CCCCC2 (configuration not stated) + Cc1c(S(C)(=O)=O)c(-c2cc(F)cc(N3CCN(c4ccc(NS(=O)(=O)c5ccc(NC(CCN6CCC(C(=O)OCCCP(=O)(O)O)CC6)CSc6ccccc6)c(S(=O)(=O)C(F)(F)F)c5)cc4)CC3)c2)c(-c2ccc(Cl)cc2)n1C(C)C = 88.5

Now examine the next entry.
# input Given the compound Cc1nc(N2CCC3(CC2)COC(C)C3N)c(CO)nc1Sc1ccnc(N)c1Cl (configuration not stated) + Cc1c(S(C)(=O)=O)c(-c2cc(F)cc(N3CCN(c4ccc(NS(=O)(=O)c5ccc(NC(CCN6CCC(C(=O)OCCCP(=O)(O)O)CC6)CSc6ccccc6)c(S(=O)(=O)C(F)(F)F)c5)cc4)CC3)c2)c(-c2ccc(Cl)cc2)n1C(C)C , what is its reported viability, T/C?
# output 79.6

* * *

As shown below, each of these compounds has a reported viability, T/C value.
Tested on: 323965-272-R-J2-PDC complex spheroid growth, % test/control
method notes: Anticancer human tumor 323965-272-R-J2-PDC cell line growth inhibition [Asc];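 also: compound exposure lasted 7 days starting three days after spheroid seeding; 100% = DMSO vehicle control wells with viability set relative to vehicle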
condition parameters: second compound 0.316 µM; first compound 0.001 µM; active compounds read low
Give the quantity in %, number only.

Cn1ncnc1[C@H]1c2n[nH]c(=O)c3cc(F)cc(c23)N[C@@H]1c1ccc(F)cc1 + Cc1c(S(C)(=O)=O)c(-c2cc(F)cc(N3CCN(c4ccc(NS(=O)(=O)c5ccc(NC(CCN6CCC(C(=O)OCCCP(=O)(O)O)CC6)CSc6ccccc6)c(S(=O)(=O)C(F)(F)F)c5)cc4)CC3)c2)c(-c2ccc(Cl)cc2)n1C(C)C = 99.7
NC1CCC(NC2CC2c2ccccc2)CC1 (centres undefined) + CNC(C)C(=O)NC1CN(S(=O)(=O)c2cccc(S(=O)(=O)N3CCC4CCC(C(=O)NC(c5ccccc5)c5ccccc5)N4C(=O)C(NC(=O)C(C)NC)C3)c2)CCC2CCC(C(=O)NC(c3ccccc3)c3ccccc3)N2C1=O = 92
Cn1ncnc1[C@H]1c2n[nH]c(=O)c3cc(F)cc(c23)N[C@@H]1c1ccc(F)cc1 + CNC(C)C(=O)NC1CN(S(=O)(=O)c2cccc(S(=O)(=O)N3CCC4CCC(C(=O)NC(c5ccccc5)c5ccccc5)N4C(=O)C(NC(=O)C(C)NC)C3)c2)CCC2CCC(C(=O)NC(c3ccccc3)c3ccccc3)N2C1=O = 89.8

Now examine the next entry.
# input # get_value(readout= viability, T/C, system= 323965-272-R-J2-PDC complex spheroid growth, % test/control) for NC1CCC(NC2CC2c2ccccc2)CC1 (centres undefined) + Cc1c(S(C)(=O)=O)c(-c2cc(F)cc(N3CCN(c4ccc(NS(=O)(=O)c5ccc(NC(CCN6CCC(C(=O)OCCCP(=O)(O)O)CC6)CSc6ccccc6)c(S(=O)(=O)C(F)(F)F)c5)cc4)CC3)c2)c(-c2ccc(Cl)cc2)n1C(C)C
# output 101
